Data credit: patent US20240016931A1

SUBJECT OF TEST: T1, Fc-tagged human TSLP antigen (huTSLP-Fc) (human, biotin-labeled in the blocking assays)
T1 construct: whole entry named; also called recombinant human TSLP-Fc
ASSAY DETAILS: competition ELISA: blocks TSLP binding to TSLP receptor
pIC50: −log10 of the molar value.
As shown below, each of these binders has a reported pIC50 value.
QUANTITY MEASURED: pIC50

hu199-03 (antibody, human IgG1, kappa, V domains shown, IgG1-YTE, kappa) VH: EVQLVQSGAEVKKPGASVKVSCKASGYTFTTYWMHWVRQAPGQGLEWMGMIDPSDSETTLIQKFKDRVTMTVDKSTSTAYMELSSLRSEDTAVYYCARTLDGYYDYWGQGTTVTVSS VL: DIQMTQSPSSLSASVGDRVTITCRASENIYSYLAWYQQKPGKSPQLLVYFAKTLAEGVPSRFSGSGSGTQFTLTISSLQPEDFATYYCQHHYGTPWTFGGGTKVEIKR = 9.68
hu199-25 (antibody, human IgG1, kappa, V domains shown, IgG1-YTE, kappa) VH: EVQLVQSGAEVKKPGASVKVSCKASGYTFTTYWMHWVKQAPGQGLEWMGMIDPSDSETTLIQKFKDKVTMTVDKSTSTAYMELSSLRSEDTAVYYCARTLDGYYDYWGQGTTVTVSS VL: DIQMTQSPSSLSASVGDRVTITCRASENIYSYLAWYQQKPGKAPKLLIYFAKTLAEGVPSRFSGSGSGTDFTLTISSLQPEDFATYYCQHHYGTPWTFGGGTKVEIKR = 9.61
